Data origin: patent US20190284192A1

- System: MV-4-11 cells
- TEST SUMMARY: Inhibitory effect on MV-4-11 cells (CellTiter-Glo)
- Format: cell-based
- CONDITIONS: Homo sapiens, MV4-11; 72 hours, CellTiter-Glo; read-out: MV-4-11
Reported pIC50 values are given for each entry in this list.
Scale: negative log10 of molar concentration, which is what pIC50 denotes.

CCS(=O)(=O)Nc1ccc(Oc2ccc(F)cc2F)c(-c2cn(C)c(=O)c3[nH]ccc23)c1 : 8.15
CCS(=O)(=O)Cc1ccc2c(c1)-c1cn(C)c(=O)cc1[C@H](C)N=C2c1ccc(OC)cc1 : 8.15
CCNC(=O)C[C@@H]1N=C(c2ccc(F)cc2)c2ccc(CS(=O)(=O)CC)cc2-c2cn(C)c(=O)cc21 : 7.49

Ask: // query pIC50 value for entry CCS(=O)(=O)Cc1ccc2c(c1)-c1cn(C)c(=O)cc1[C@H](C1CC1)N=C2c1ccc(F)cc1
Result: 8.15
